# test-target: wtKIT (Homo sapiens, UniProt P10721)
# Construct: 1888289AM in the reaction mixtures
# Sequence (P10721 26-976): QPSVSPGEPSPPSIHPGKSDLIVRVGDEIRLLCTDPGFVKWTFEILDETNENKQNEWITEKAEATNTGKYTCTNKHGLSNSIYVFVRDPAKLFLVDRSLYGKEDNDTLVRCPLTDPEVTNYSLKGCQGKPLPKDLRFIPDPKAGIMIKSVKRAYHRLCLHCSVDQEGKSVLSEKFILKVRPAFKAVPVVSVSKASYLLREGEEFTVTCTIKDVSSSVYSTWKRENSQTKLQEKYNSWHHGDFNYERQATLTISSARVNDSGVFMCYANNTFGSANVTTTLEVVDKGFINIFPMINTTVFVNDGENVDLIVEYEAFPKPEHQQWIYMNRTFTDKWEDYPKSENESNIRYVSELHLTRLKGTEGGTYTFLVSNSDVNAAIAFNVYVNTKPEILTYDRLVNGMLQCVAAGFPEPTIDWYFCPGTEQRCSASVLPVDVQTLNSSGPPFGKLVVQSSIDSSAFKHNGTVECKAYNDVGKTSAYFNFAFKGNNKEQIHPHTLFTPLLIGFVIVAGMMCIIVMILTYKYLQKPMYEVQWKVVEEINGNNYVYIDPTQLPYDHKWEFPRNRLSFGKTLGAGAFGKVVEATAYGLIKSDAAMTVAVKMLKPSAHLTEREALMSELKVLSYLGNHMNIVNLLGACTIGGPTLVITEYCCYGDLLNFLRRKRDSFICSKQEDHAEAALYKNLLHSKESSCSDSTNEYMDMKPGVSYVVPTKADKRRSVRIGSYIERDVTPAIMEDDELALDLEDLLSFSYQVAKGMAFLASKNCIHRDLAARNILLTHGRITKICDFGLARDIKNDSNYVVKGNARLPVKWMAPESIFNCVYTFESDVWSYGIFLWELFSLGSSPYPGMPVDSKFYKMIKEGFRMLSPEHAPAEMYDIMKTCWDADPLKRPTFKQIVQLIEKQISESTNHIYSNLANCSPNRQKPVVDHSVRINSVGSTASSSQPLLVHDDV
# experimental-protocol: HTRF biochemical assay, wtKIT (phosphorylation of a peptide substrate)
# assay-context: Table 4
pIC50: −log10 of the molar value.
Exercise: state measured pIC50 for each of the molecules provided.

Answered cases to consult:
>>> df
                                   molecule  value_reported
0  COCc1ccn2c(C(=O)Nc3cc(-c4noc(CCN5CCCCC5)n4)ccc3C)cnc2c1 [Compound I-666]    6.30 to 7.30
1  COc1ccn2c(C(=O)Nc3cc(-c4noc(N5CC(F)(F)C5)n4)ccc3C)cnc2c1 [Compound I-603]          ≥ 7.30
2  Cc1ccc(-c2noc([C@@H]3CCC(C)(C)N3)n2)cc1NC(=O)c1cnc2ccccn12 (racemic) [Compound I-232]    6.30 to 7.30
3  Cc1ccn2c(C(=O)Nc3cc(-c4noc(C5CCCCC5)n4)ccc3C)cnc2c1 [Compound I-539]          ≥ 7.30
4  COCc1ccn2c(C(=O)Nc3cc(-c4noc(-c5cccnc5)n4)ccc3C)cnc2c1 [Compound I-732]    6.30 to 7.30
5  Cc1ccn2c(C(=O)Nc3cc(-c4noc(CCC(C)(O)C(F)(F)F)n4)ccc3C)cnc2c1 (single isomer, unassigned) [Compound I-515]          ≥ 7.30

State recorded pIC50 for all listed molecules.
1. Cc1ccc(-c2noc([C@H]3C[C@@H]3F)n2)cc1NC(=O)c1cnn2cccc(F)c12 [Compound I-487]
2. Cc1ccc(-c2noc([C@@H]3CC4(CC4)CN3)n2)cc1NC(=O)c1cnc2ccccn12 [Compound I-230]
3. Cc1ccc(-c2noc([C@H]3C[C@@H]3F)n2)cc1NC(=O)c1cnc2cc(-c3ccn(C)n3)ccn12 [Compound I-529]
4. COc1ccn2c(C(=O)Nc3cc(-c4noc(CC(O)C(F)F)n4)ccc3C)cnc2c1 (single isomer, unassigned) [Compound I-76]
5. Cc1ccc(-c2noc([C@H]3C[C@@H]3F)n2)cc1NC(=O)c1cnn2ccccc12 [Compound I-109]
6. Cc1ccc(-c2noc([C@H]3C[C@@H]3F)n2)cc1NC(=O)c1cnc2cc(CCCC(C)(C)O)ccn12 [Compound I-452]
7. COC(=O)N1CC(c2nc(-c3ccc(C(F)F)c(NC(=O)c4cnc5ccccn45)c3)no2)C1 [Compound I-225]
8. Cc1ccc2ncc(C(=O)Nc3cc(-c4noc([C@H]5C[C@@H]5F)n4)ccc3C)n2c1 [Compound I-108]

A.
6.30 to 7.30
≥ 7.30
≥ 7.30
≥ 7.30
≥ 7.30
≥ 7.30
≥ 7.30
≥ 7.30

Q. Param readout= pIC50; system= wtKIT (Homo sapiens, UniProt P10721); entry= Cc1ccc(-c2noc([C@H]3C[C@@H]3F)n2)cc1NC(=O)c1cnc2ccc(COCC(C)(C)O)cn12 [Compound I-455] ; returns value.
A. ≥ 7.30

###

# test-target: BCRP (BCRP-MDCKII monolayer) (Homo sapiens, UniProt Q9UNQ0)
# Construct: host or cells: MDCKII (canine kidney) cells
# Sequence (Q9UNQ0 whole entry): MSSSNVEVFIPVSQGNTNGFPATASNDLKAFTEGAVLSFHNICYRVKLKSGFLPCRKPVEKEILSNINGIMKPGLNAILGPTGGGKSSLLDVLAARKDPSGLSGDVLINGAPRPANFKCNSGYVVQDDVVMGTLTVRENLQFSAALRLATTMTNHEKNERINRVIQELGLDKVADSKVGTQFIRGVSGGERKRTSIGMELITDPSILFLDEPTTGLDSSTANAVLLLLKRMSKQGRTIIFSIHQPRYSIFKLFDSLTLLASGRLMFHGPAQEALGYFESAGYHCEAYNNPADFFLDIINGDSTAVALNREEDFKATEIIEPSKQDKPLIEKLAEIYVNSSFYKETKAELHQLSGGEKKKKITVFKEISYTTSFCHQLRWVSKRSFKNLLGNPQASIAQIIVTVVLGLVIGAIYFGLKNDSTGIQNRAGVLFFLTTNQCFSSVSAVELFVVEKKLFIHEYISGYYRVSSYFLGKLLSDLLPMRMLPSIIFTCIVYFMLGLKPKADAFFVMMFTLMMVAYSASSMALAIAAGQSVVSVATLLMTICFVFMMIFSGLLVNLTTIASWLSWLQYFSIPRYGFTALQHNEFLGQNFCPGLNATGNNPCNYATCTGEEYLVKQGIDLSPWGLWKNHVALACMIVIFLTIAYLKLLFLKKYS
# experimental-protocol: MDCKII-BCRP bidirectional transport assay
# Assay type: in vitro ADME
# assay-context: apical to basolateral
assay-readout: MDCK-BCRP: Papp A-B

Answered cases to consult:
>>> df
                                   compound   value_reported
0  Cc1ccc(-c2noc(C[C@@H](C)O)n2)cc1NC(=O)c1cnc2cc(C(F)F)ccn12 [Compound I-83]  0.96 10^−6 cm/s
1  CC(C)(C)OC(=O)N1CC(c2nc(-c3ccc(Br)c(NC(=O)c4cnc5ccccn45)c3)no2)C1 [Compound I-332]  2.63 10^−6 cm/s
2  COC(=O)N1CC(c2nc(-c3ccc(C)c(NC(=O)c4cnc5cc(OCCO)ccn45)c3)no2)C1 [Compound I-264]  0.71 10^−6 cm/s
3  COC(=O)N1CC(c2nc(-c3ccc(C)c(NC(=O)c4cnn5ccc(Br)cc45)c3)no2)C1 [Compound I-280]  5.07 10^−6 cm/s
4  Cc1ccc(-c2noc(C3(CO)CC(F)(F)C3)n2)cc1NC(=O)c1cnc2ccccn12 [Compound I-320]  1.75 10^−6 cm/s

State recorded MDCK-BCRP: Papp A-B for all listed compounds.
1. O=C(Nc1cc(-c2noc([C@H]3C[C@@H]3F)n2)ccc1Cl)c1cnc2ccccn12 [Compound I-341]
2. Cc1ccc(-c2noc(C3CCCCO3)n2)cc1NC(=O)c1cnc2ccccn12 (racemic) [Compound I-397]
3. Cc1ccc(-c2noc(C3CC(C)(F)C3)n2)cc1NC(=O)c1cnc2ccccn12 (stereo not shown) [Compound I-387]
4. Cc1ccc(-c2noc(C(C)NS(C)(=O)=O)n2)cc1NC(=O)c1cnc2ccccn12 (single isomer, unassigned) [Compound I-238]

A.
1. 10.1 10^−6 cm/s
2. 8.04 10^−6 cm/s
3. 13.8 10^−6 cm/s
4. 0.92 10^−6 cm/s

State recorded MDCK-BCRP: Papp A-B for all listed compounds.
1. Cc1ccc(-c2noc(CC(=O)O)n2)cc1NC(=O)c1cnc2ccccn12 [Compound I-335]
2. Cc1ccc(-c2noc([C@H]3C[C@@H]3F)n2)cc1NC(=O)c1cnc2cc(N3CCCC3)ccn12 [Compound I-365]
3. Cc1ccc(-c2noc(C3CC(Oc4ccccc4)C3)n2)cc1NC(=O)c1cnc2ccccn12 (stereo not shown) [Compound I-348]
4. Cc1ccc(-c2noc([C@@H](C)O)n2)cc1NC(=O)c1cnc2ccccn12 [Compound I-270]
5. Cc1ccc(-c2noc(CCO)n2)cc1NC(=O)c1cnc2ccccn12 [Compound I-306]
6. CCOc1ccn2c(C(=O)Nc3cc(-c4noc([C@H]5C[C@@H]5F)n4)ccc3C)cnc2c1 [Compound I-93]
7. COc1ccn2c(C(=O)Nc3cc(-c4noc(C5CC(F)(F)C5)n4)ccc3C)cnc2c1 [Compound I-96]

A.
1: 1.99 10^−6 cm/s; 2: 4.73 10^−6 cm/s; 3: 0.13 10^−6 cm/s; 4: 1.3 10^−6 cm/s; 5: 1.46 10^−6 cm/s; 6: 21 10^−6 cm/s; 7: 8.58 10^−6 cm/s

###

# test-target: wtKIT (Homo sapiens, UniProt P10721)
# Construct: 1888289AM in the reaction mixtures
# experimental-protocol: HTRF biochemical assay, wtKIT (phosphorylation of a peptide substrate)
# assay-context: Table 4
# Procedure: Exemplary compounds were tested for ability to inhibit the phosphorylation of a peptide substrate by the tyrosine kinase wt KIT, PDGFRα, or CSF-1R. Assay procedures and results are described below. Enzyme, substrate, and cofactors (ATP and Mn^2+) are combined in a well of a microtiter plate and incubated for 3 hours at 25° C. At the end of the incubation, the reaction is quenched by the addition of an EDTA-containing buffer. […] • 1. […] Read plate in BioTek Synergy Reader. […]
assay-readout: IC50

State recorded IC50 for all listed compounds.
1. COc1ccn2c(C(=O)Nc3cc(-c4noc(C5CC(F)(F)C5)n4)ccc3C)cnc2c1
2. Cc1ccc(-c2noc(C(C)NS(C)(=O)=O)n2)cc1NC(=O)c1cnc2ccccn12 (single isomer, unassigned) [Compound I-237]
3. COC[C@@H](O)c1nc(-c2ccc(C)c(NC(=O)c3cnc4cc(C)ccn34)c2)no1

A.
["≤ 50 nM", "50 to 500 nM", "500 to 5000 nM"]

Q. Could you share which IC50 value was measured for Cc1ccc(-c2noc(C3CC4(C3)CC(F)(F)C4)n2)cc1NC(=O)c1cnc2ccccn12 ?
A. ≤ 50 nM

###

# experimental-protocol: Three time point assay for plasma, brain and testes distribution after oral dosing
# Format: in vivo, rat
# assay-context: male, SD, brain, 10 mg/kg; rat, oral dosing, time point 2 h; read-out: Brain concentration
# Description: Exemplary compounds were tested for distribution in plasma, brain and testes tissue following oral dosing of the compounds in rats. Procedures and results are described below. […] For PO dosing, the dose formulation was administered via oral gavage following facility SOPs. The dose volume was determined by the animals' body weight collected on the morning of dosing day. […]
assay-readout: concentration at 2 h (ng/g)
Answers are plain numbers, in ng/g.

Q. Could you share which concentration at 2 h value was measured for Cc1ccc(-c2noc([C@H]3C[C@@H]3F)n2)cc1NC(=O)c1cnc2cc(COCC(C)(C)O)ccn12 [Compound I-71] ?
A. 169

###

# System: Caco-2 cells
# experimental-protocol: Caco-2 permeability assay
# Assay type: in vitro ADME
# assay-context: Caco-2
assay-readout: Caco-2: Efflux Ratio
Answers are plain numbers.

Answered cases to consult:
>>> df
                                   compound  value_reported
0  Cc1ccc(-c2noc(C3CC(F)C3)n2)cc1NC(=O)c1cnc2ccccn12 (stereo not shown) [Compound I-381]            0.97
1  Cc1ccc(-c2noc(C3CCN3)n2)cc1NC(=O)c1cnc2ccccn12 (racemic) [Compound I-394]            3.48
2  Cc1ccc(-c2noc(C3(C)CC(F)(F)CN3)n2)cc1NC(=O)c1cnc2ccccn12 (racemic) [Compound I-328]            1.02

Could you now consider this next compound?
Q. Could you share which Caco-2: Efflux Ratio value was measured for COCCOCc1ccn2c(C(=O)Nc3cc(-c4noc([C@H]5C[C@@H]5F)n4)ccc3C)cnc2c1 [Compound I-84] ?
A. 1.8
